Reference source for all entries: the supplement of paper PMC10126150

Collected switch fluorescence ratio values appear next to each entry.
Tested on: ATP;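 further: ATP exposure 15 min at 22 °C before imaging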
Assay: switch fluorescence ratio, 500 uM ATP over buffer (Cy3 cluster intensity, sum of 5 cycles each) (fold (ratio)); higher = stronger signal-on switching upon ATP binding; sequences stand for … in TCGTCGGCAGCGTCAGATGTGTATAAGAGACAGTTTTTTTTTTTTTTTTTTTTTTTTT…TC
Details: aptamer strand: ATP DNA aptamer (quencher-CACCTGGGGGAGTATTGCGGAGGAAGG + anchor), 100 nM annealed; ATP concentration: 500 uM
value_type: switch fluorescence ratio

{"monomer_sequence": "TAACAATTTC", "result": 1.01}
{"monomer_sequence": "TGTTATAATC", "result": 1.08}
{"monomer_sequence": "GGGGGAATGG", "result": 1.11}
{"monomer_sequence": "ATTGGGAGGA", "result": 1}
{"monomer_sequence": "TGGATATAGT", "result": 0.994}
{"monomer_sequence": "TTGGTCTAGA", "result": 1.01}
{"monomer_sequence": "ATTTTTTGAA", "result": 0.997}
{"monomer_sequence": "TGATTACAGT", "result": 1}
{"monomer_sequence": "TAAACTACAT", "result": 1.01}
{"monomer_sequence": "CTAGATATGT", "result": 0.99}

---

The sequences listed here are annotated with their switch fluorescence ratio.
Tested on: ATP;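 further: ATP exposure 15 min at 22 °C before imaging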
Assay: switch fluorescence ratio, 500 uM ATP over buffer (Cy3 cluster intensity, sum of 5 cycles each) (fold (ratio)); higher = stronger signal-on switching upon ATP binding; sequences stand for … in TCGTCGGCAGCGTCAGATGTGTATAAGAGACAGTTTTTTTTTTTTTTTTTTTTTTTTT…TC
Conditions: aptamer strand: ATP DNA aptamer (quencher-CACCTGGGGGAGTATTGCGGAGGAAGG + anchor), 100 nM annealed; ATP concentration: 500 uM
value_type: switch fluorescence ratio

{"monomer_sequence": "ACCATACTGT", "result": 1.33}
{"monomer_sequence": "AGCGCATTGT", "result": 1.02}
{"monomer_sequence": "TGAATTTAGA", "result": 0.986}
{"monomer_sequence": "TTTGTAAGAA", "result": 1.01}
{"monomer_sequence": "AAGTATTTAG", "result": 0.994}
{"monomer_sequence": "TATAGATAAG", "result": 1.01}
{"monomer_sequence": "GGCCGGTAAA", "result": 1}
{"monomer_sequence": "AATATTCATT", "result": 0.985}
{"monomer_sequence": "CGTCTGGGAT", "result": 1.01}
{"monomer_sequence": "GGGGTAAGGG", "result": 1}
{"monomer_sequence": "GAAGCACCGG", "result": 1.08}
{"monomer_sequence": "TTCGGGATTG", "result": 0.997}
{"monomer_sequence": "AGTTTATGTG", "result": 0.975}
{"monomer_sequence": "TTCCCCAGGG", "result": 3.63}
{"monomer_sequence": "AGGGGGGGCT", "result": 0.985}
{"monomer_sequence": "TTTTTGCGTT", "result": 0.976}
{"monomer_sequence": "GGTGTGTGGT", "result": 1}
{"monomer_sequence": "TCCGGAGGGT", "result": 1.05}
{"monomer_sequence": "GGGGAAGGAG", "result": 0.977}
{"monomer_sequence": "GTGGTAACCT", "result": 1.4}
{"monomer_sequence": "GGTGAGTTAC", "result": 0.98}
{"monomer_sequence": "GTGGATAGCT", "result": 1}
{"monomer_sequence": "GATAGTTGCG", "result": 1.03}
{"monomer_sequence": "TTACTACGGC", "result": 1.09}
{"monomer_sequence": "AGGCGCAAGC", "result": 1.07}
{"monomer_sequence": "GCCTTGGACG", "result": 1.04}
{"monomer_sequence": "GGGTGGTTGG", "result": 0.999}
{"monomer_sequence": "AACAGGATCG", "result": 1.01}
{"monomer_sequence": "GAGTGGACTC", "result": 0.999}
{"monomer_sequence": "GTATTGAAGT", "result": 0.985}
{"monomer_sequence": "TGGCGAGTCC", "result": 0.973}
{"monomer_sequence": "TAGTCAGAAT", "result": 0.967}
{"monomer_sequence": "TTGCGGAGGG", "result": 1.01}
{"monomer_sequence": "TGAGTCCATT", "result": 0.985}
{"monomer_sequence": "ATCTGGGGCC", "result": 1.01}
{"monomer_sequence": "TAAATTTCGA", "result": 1.04}
{"monomer_sequence": "GGAGGGGGGC", "result": 1.09}
{"monomer_sequence": "ACGGGGGGAT", "result": 1.04}
{"monomer_sequence": "AATATCTGAC", "result": 1.18}
{"monomer_sequence": "GGAGCGCTGG", "result": 1.05}
{"monomer_sequence": "AAGTAGTGCG", "result": 1.01}
{"monomer_sequence": "GGGCACATCC", "result": 1.02}
{"monomer_sequence": "CCATACTTAT", "result": 1.04}
{"monomer_sequence": "GCAGCCGAAT", "result": 1.04}
{"monomer_sequence": "AGGGGGGTTC", "result": 0.994}
{"monomer_sequence": "CAGGGCAATG", "result": 1.2}
{"monomer_sequence": "ACCAAAGGCG", "result": 1.04}
{"monomer_sequence": "CTTTCAAAAA", "result": 1.03}
{"monomer_sequence": "GGATTAAAAT", "result": 0.997}
{"monomer_sequence": "CTCACATTGA", "result": 1.05}
{"monomer_sequence": "TCTGTATCCG", "result": 0.984}
{"monomer_sequence": "CGGATAGAGG", "result": 0.964}
{"monomer_sequence": "AGACATGGGT", "result": 1.02}
{"monomer_sequence": "GGCGGATGGA", "result": 1.01}
{"monomer_sequence": "GAGGGGATTT", "result": 1.01}
{"monomer_sequence": "TTTAAGTAAG", "result": 1.02}
{"monomer_sequence": "TTTTAAAAGA", "result": 0.995}
{"monomer_sequence": "TAAAAGTGGG", "result": 1.01}
{"monomer_sequence": "CACCTGTTGC", "result": 1.02}
{"monomer_sequence": "ATGGGGCGGC", "result": 0.983}
{"monomer_sequence": "TTCGGGCGAT", "result": 1.01}
{"monomer_sequence": "GGGCCCTTCG", "result": 1.02}
{"monomer_sequence": "CGGGATAATG", "result": 0.994}
{"monomer_sequence": "TCGGGCAGCG", "result": 0.989}
{"monomer_sequence": "GAGGGGCTGG", "result": 0.984}
{"monomer_sequence": "AGGTGTGCGC", "result": 1.01}
{"monomer_sequence": "GTTTTCACAG", "result": 0.992}
{"monomer_sequence": "TAGATGTTTA", "result": 1.32}
{"monomer_sequence": "CCTGGATTCA", "result": 0.989}
{"monomer_sequence": "AGATTGTACG", "result": 1.01}
{"monomer_sequence": "GTGGGAGATA", "result": 1.01}
{"monomer_sequence": "TTATGTTGGG", "result": 1.01}
{"monomer_sequence": "CATTTAGGGC", "result": 1.02}
{"monomer_sequence": "GTTTCAGGT", "result": 0.991}
{"monomer_sequence": "GGGAGAAAGG", "result": 1.01}
{"monomer_sequence": "CTTGTGTGGT", "result": 1.02}
{"monomer_sequence": "CAAATGATGT", "result": 1.01}
{"monomer_sequence": "GCTCCCTGAG", "result": 1.06}
{"monomer_sequence": "CGGATAATTT", "result": 1.01}
{"monomer_sequence": "CTTTTGGAGT", "result": 0.986}
{"monomer_sequence": "TTCGCGCTTT", "result": 1}
{"monomer_sequence": "AAGTATGTTC", "result": 1}
{"monomer_sequence": "AGGATTGGGG", "result": 1}
{"monomer_sequence": "TGTCAGAAAT", "result": 0.992}
{"monomer_sequence": "TGGGATTGCG", "result": 1.04}
{"monomer_sequence": "AAGACAGCGA", "result": 1.41}
